Target chain: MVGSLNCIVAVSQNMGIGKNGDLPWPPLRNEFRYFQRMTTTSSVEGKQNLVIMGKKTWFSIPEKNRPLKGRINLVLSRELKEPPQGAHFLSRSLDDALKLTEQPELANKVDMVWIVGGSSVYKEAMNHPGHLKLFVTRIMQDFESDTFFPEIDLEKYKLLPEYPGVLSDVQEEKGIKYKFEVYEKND
Dear all, I have gathered published IC50 values for the protein given by its sequence; the list follows.
measure name: IC50 (µM)

[P] COc1cc(CNc2ccc3nc(N)nc(N)c3c2)cc(OC)c1OC
[Q] CCOC(=O)CCCOc1cc(NCc2ccc3nc(N)nc(N)c3c2)ccc1OC
Lab note: check whether P or Q shows the higher recorded IC50. Kindly give the label for the entry you pick.
P

[P] Cc1sc2nc(N)[nH]c(=O)c2c1Sc1ccccc1
[Q] CCOC(=O)CSC1=NC(c2ccccc2)C(C(=O)OCC)=C(C)N1 (stereo not given)
Given the listed records, identify the one among P and Q with higher IC50. Select an item and report its label.
P
(P: 3.5 µM, Q: 0.83 µM)

[a] CN(Cc1cnc2ncnc(N)c2n1)c1ccc(C(=O)NC(CCC(=O)O)C(=O)O)cc1 (stereo not given)
[b] O=C1Nc2ccc([N+](=O)[O-])cc2/C1=C/c1cn(CC(O)Cn2cc(/C=C3\C(=O)Nc4ccc([N+](=O)[O-])cc43)c3ccccc32)c2ccccc12 (stereo not given)
[c] Nc1nc2ncc(CNc3ccc(C(=O)NC(CCS(=O)(=O)O)C(=O)O)cc3)cc2c(=O)[nH]1 (stereo not given)
[d] CC(C)c1c(Sc2ccccc2)[nH]c2nc(N)nc(N)c12
Please list these compounds in decreasing order of IC50. As an answer, provide the labels arranged in the order called for.
d, a, b, c
(d: 16 µM, a: 6 µM, b: 0.7 µM, c: 0.4 µM)

[I] CCOC(=O)CSC1=NC(c2ccccc2OC)C(C(=O)OCC)=C(C)N1 (stereo not given)
[II] COc1ccc(OC)c(CN(C)c2cnc3nc(N)nc(N)c3c2)c1
Select one: I or II . Criterion: greater recorded IC50. State your choice using its label.
I
(I: 7.3 µM, II: 0.026 µM)

* * *

Dear all, I have gathered published IC50 values for Dihydrofolate reductase (Homo sapiens); the list follows.
measure name: IC50 (µM)

For orientation, consider the following solved cases.
molecule | measure name | measured value
CC1=NN(c2cccc(Cl)c2)C(=O)/C1=C\c1cn(CC(O)Cn2c3ccccc3c(=O)c3ccccc32)c2ccccc12 (racemic) | IC50 | 1.8
CCOC(=O)C1=C(C)NC(S/C(=C\c2ccc(OC)cc2)C(=O)OCC)=NC1c1ccccc1 (stereo not given) | IC50 | 0.01
NCCCC(NC(=O)c1ccc(OCc2ccc3nc(N)nc(O)c3c2)cc1)C(=O)O (stereo not given) | IC50 | 0.53

[I] COc1ccc(NCc2ccc3nc(N)nc(N)c3c2)cc1OC
[II] Nc1nc2ncc(CNc3ccc(C(=O)NC(CCP(=O)(O)O)C(=O)O)cc3)cc2c(=O)[nH]1 (stereo not given)
Given the two records I and II , choose the one whose IC50 value is lower. # answer = label of selected item
I

* * *

pIC50: −log10 of the molar value.
For reference, the following pIC50 results for Dihydrofolate reductase (Homo sapiens, UniProt P00374) were taken from various sources.
measure name: pIC50

molecule | measured value
COc1ccc(OC)c(C(C)C#Cc2c(C)nc(N)nc2N)c1 (racemic) | 6.40
CN(Cc1cnc2nc(N)nc(N)c2n1)c1ccc(C(=O)NC(CCCN)C(=O)O)cc1 (stereo unspecified) | 6.80
Nc1nc(N)c2cc(NCc3ccccc3)ccc2n1 | 5.62

[I] CC1=Nc2c(N)nc(N)nc2OC1C (stereo unspecified)
[II] Cc1[nH]c2nc(N)[nH]c(=O)c2c1Sc1ccc(C(=O)N[C@@H](CCC(=O)O)C(=O)O)cc1
Returns: the label, I or II , whose recorded pIC50 is the lower number. Please identify the chosen entry by its label.
I
(I: 3.04, II: 5.66)

* * *

Compiled pIC50 measurements on Dihydrofolate reductase (Homo sapiens) taken from the literature.
study system: Dihydrofolate reductase (Homo sapiens)
Sequence (P00374 whole entry): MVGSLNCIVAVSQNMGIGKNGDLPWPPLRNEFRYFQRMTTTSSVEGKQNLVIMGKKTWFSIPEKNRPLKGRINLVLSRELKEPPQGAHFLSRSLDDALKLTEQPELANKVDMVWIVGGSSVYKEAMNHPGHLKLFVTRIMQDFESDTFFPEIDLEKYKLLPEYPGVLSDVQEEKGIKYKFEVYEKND
pIC50: −log10 of the molar value.
measure name: pIC50

Some solved entries appear below for comparison.
molecule | measured value
CN(Cc1cnc2nc(N)nc(N)c2n1)c1ccc(C(=O)NC(CCC(=O)Nc2cccc(C(=O)O)c2)C(=O)O)cc1 (configuration not stated) | 7.46
CCOC(=O)C1=C(C)N=C(SCCC(=O)O)NC1c1ccccc1OC (configuration not stated) | 8.05
COc1ccc(Sc2[nH]c3nc(N)nc(N)c3c2C(C)C)cc1OC | 4.57
COc1ccc(CN2CCc3nc4nc(N)nc(N)c4cc3C2)cc1 | 4.57
COc1ccc(CN(C)c2ccc3nc(N)nc(N)c3c2)c(OC)c1OC | 6.85
CN(Cc1cnc2nc(N)nc(N)c2n1)c1ccc(C(=O)NC(CCCNCC(=O)O)C(=O)O)cc1 (configuration not stated) | 7.30
COc1cc(CNc2ccc3nc(N)nc(N)c3c2)cc(OC)c1 | 4.55
COC[C@H](C)Oc1cccc2nc(N)nc(N)c12 | 5.85

[a] COc1ccc(Sc2c(C)c3c(N)nc(N)nc3n2C)cc1OC
[b] NCCCC(NC(=O)c1ccc(OCc2ccc3nc[nH]c(=O)c3c2)cc1)C(=O)O (configuration not stated)
[c] COc1cc(CN2CCc3nc4nc(N)nc(N)c4cc3C2)cc(OC)c1
[d] CC1=Nc2c(O)nc(N)nc2OC1c1ccccc1 (configuration not stated)
[e] COc1cc(/C=C2\N=C(c3ccccc3)N(c3ccc(C(=O)O)cc3)C2=O)ccc1OC(=O)c1ccccc1
I would appreciate it if you could sort these 5 molecules by pIC50, starting from the smallest number. A ranking is expressed here by listing the labels in the requested order.
d, c, b, a, e

* * *

System: Dihydrofolate reductase (Homo sapiens) | Read-out: pIC50 | Origin: multiple publications
study system: Dihydrofolate reductase (Homo sapiens)
Sequence (P00374 whole entry): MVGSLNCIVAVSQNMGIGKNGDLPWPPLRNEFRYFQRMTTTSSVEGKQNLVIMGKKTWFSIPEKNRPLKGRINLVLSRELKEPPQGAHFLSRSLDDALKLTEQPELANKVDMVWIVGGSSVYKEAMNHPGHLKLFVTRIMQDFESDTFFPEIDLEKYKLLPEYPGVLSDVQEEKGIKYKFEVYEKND
pIC50: −log10 of the molar value.
measure name: pIC50

Observe how each entry below is paired with its result.
compound | measured value
CCc1nc(N)nc(N)c1C#CC(C)c1cc(OC)cc(-c2ccc3c(c2)OCCO3)c1 (configuration not stated) | 6.59
Nc1nc(O)c2c(Cl)c(CNc3ccc(C(=O)NC(CCC(=O)O)C(=O)O)cc3)ccc2n1 (configuration not stated) | 7.00
COc1cc(/C=C2\CCCc3c2nc(C)nc3-c2cc(OC)c(OC)c(OC)c2)cc(OC)c1OC | 6.30
Cc1cc2nc(N)[nH]c(=O)c2n1Cc1ccc([N+](=O)[O-])cc1 | 4.48

[P] COc1cc(/C=C2\CCCc3c2nc(N)nc3-c2cc(OC)c(OC)c(OC)c2)cc(OC)c1OC
[Q] CCC(C#Cc1c(C)nc(N)nc1N)c1cc(OC)c(OC)c(OC)c1 (racemic)
For the two items P and Q , which reports the higher pIC50 value? Pick one; state its label.
Q
(Q: 6.70, P: 4.85)

* * *

Literature compilation of pIC50 measurements on Dihydrofolate reductase (Homo sapiens).
study system: Dihydrofolate reductase (Homo sapiens)
Sequence (P00374 whole entry): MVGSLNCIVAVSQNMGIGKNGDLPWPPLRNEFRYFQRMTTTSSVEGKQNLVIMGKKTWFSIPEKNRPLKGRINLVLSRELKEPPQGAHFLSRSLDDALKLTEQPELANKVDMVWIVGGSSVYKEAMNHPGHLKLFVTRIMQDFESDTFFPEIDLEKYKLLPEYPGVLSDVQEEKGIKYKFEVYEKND
pIC50: −log10 of the molar value.

A selection of reference data follows.
molecular string | study system | measured value
Cc1cc2nc(N)[nH]c(=O)c2n1Cc1ccc(Cl)cc1 | Dihydrofolate reductase (Homo sapiens) | < 4.46
COc1cc(-c2sc3nc(N)nc(N)c3c2C)cc(OC)c1OC | Dihydrofolate reductase (Homo sapiens) | < 5.00
CCCc1c(Sc2ccc(OC)cc2)[nH]c2nc(N)nc(N)c12 | Dihydrofolate reductase (Homo sapiens) | < 4.52
CCCc1c(Sc2cccc3ccccc23)[nH]c2nc(N)nc(N)c12 | Dihydrofolate reductase (Homo sapiens) | < 4.54
Nc1nc(N)c2c(COc3cccc(F)c3)cccc2n1 | Dihydrofolate reductase (Homo sapiens) | < 4.30
Cc1[nH]c2nc(N)[nH]c(=O)c2c1Sc1ccc([N+](=O)[O-])cc1 | Dihydrofolate reductase (Homo sapiens) | < 4.27

// returns reported pIC50 for input `Cc1cc2nc(N)[nH]c(=O)c2n1Cc1ccc(Cl)c(Cl)c1`
< 4.49
